Source: patent US20090202547A1

SUBJECT OF TEST: T1, FR3exFc (human)
T1 construct: also called FGFR3/Fc; FR3/Fc
ASSAY REMARKS: BIAcore, Fab-dHLX-MH miniantibody
pKd: −log10 of the molar value.
MEASURED PARAMETER: pKd

1. MS-Pro-12-dHLX-MH (Fab, V domains shown, Fab mini-antibody format Fab-dHLX-MH, a dimer of the Fab monomer; also called MSPRO12 dimeric dHLX format; Fab-dHLX) VH: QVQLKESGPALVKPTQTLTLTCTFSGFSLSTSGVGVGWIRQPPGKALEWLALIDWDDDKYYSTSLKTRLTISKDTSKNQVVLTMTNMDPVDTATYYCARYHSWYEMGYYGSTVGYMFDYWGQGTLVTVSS VL: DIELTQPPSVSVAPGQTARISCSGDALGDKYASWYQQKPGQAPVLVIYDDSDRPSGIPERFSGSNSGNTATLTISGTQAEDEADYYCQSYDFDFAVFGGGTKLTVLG    8.92
